Where do these numbers come from? They come from patent US20220332795A1.

# assayed.target: human serum albumin (human) (UniProt P02768)
# Sequence (P02768 25-609 limits assumed): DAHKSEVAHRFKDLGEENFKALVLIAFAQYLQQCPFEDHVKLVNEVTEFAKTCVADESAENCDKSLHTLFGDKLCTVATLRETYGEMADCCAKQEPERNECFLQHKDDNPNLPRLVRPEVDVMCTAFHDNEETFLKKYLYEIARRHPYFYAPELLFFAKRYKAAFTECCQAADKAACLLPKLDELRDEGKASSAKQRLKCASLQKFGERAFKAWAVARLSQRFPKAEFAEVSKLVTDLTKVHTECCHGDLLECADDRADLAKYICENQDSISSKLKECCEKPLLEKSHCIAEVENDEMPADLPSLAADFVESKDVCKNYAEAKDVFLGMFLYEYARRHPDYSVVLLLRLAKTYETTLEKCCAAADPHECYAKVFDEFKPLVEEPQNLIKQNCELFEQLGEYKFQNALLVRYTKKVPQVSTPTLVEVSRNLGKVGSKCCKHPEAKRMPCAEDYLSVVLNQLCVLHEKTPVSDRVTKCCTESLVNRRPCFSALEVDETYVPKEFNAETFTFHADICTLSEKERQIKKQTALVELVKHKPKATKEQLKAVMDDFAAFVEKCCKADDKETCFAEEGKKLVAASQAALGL
# procedure.text: primary solution ELISA screen
reported.endpoint: RLU (RLU)
Give just the number in RLU; leave the unit off.

{"binder": "SEQ ID NO 66 (designed binder, not shown: small tags and cut ends) MLPAPKNLVVSRVTEDSARLSWTAPDAAFDSFTIDYDEPRSPGEAIVLTVPGSERSYDLTGLKPGTEYRVFIWGIKGGDTSFPLSAIFTT", "RLU, RLU": 8100}
{"binder": "SEQ ID NO 46 (designed binder, not shown: small tags and cut ends) MLPAPKNLVVSRVTEDSARLSWTAPDAAFDSFIIPYAEVRPDGEAIVLTVPGSERSYDLTGLKPGTEYSVLIHGVKGGKLSLPLSAIFTT", "RLU, RLU": 8150}
{"binder": "SEQ ID NO 70 (designed binder, not shown: small tags and cut ends) MLPAPKNLVVSRVTEDSARLSWQGVARAFDSFLITYREQIFAGEVIVLTVPGSERSYDLTGLKPGTEYPVWIQGVKGGDLSNPLSAIFTT", "RLU, RLU": 94800}
{"binder": "SEQ ID NO 87 (designed binder, not shown: small tags and cut ends) MLPAPKNLVVSRVTEDSARLSWTAPDAAFDSFAIEYTEFLYSGEAIVLTVPGSERSYDLTGLKPGTEYGVPINGVKGGFVSPPLSAIVTT", "RLU, RLU": 3650}
{"binder": "SEQ ID NO 54 (designed binder, not shown: small tags and cut ends) MLPAPKNLVVSRVTEDSARLSWTAPDAAFDSFAIAYGEHIVIGEAIVLTVPGSERSYDLTGLKPGTEYMVPIAGVKGGPISLPLSAIFTT", "RLU, RLU": 11700}
{"binder": "SEQ ID NO 96 (designed binder, not shown: small tags and cut ends) MSLPAPKNLVVSRVTEDSARLSWTAPDAAFDSFPIAYLEVFYEGEAIVLTVPGSERSYDLTGLKPGTEYQVPIEGVKGGAMSLPLSAIFTT", "RLU, RLU": 15200}

Q: Need RLU of SEQ ID NO 24 (designed binder, not shown: small tags and cut ends) MLPAPKNLVVSRVTEDSARLSWTAPDAAFDSFMIRYQEGTRWGEAIVLTVPGSERSYDLTGLKPGTEYIVMIAGVKGGQISLPLSAIFTT , thanks.
Result: 6550

Q: Proceed to SEQ ID NO 94 (designed binder, not shown: small tags and cut ends) MLPAPKNLVVSEVTEDSARLSWQGVARAFDSFLITYREQIFAGEVIVLTVPGSERSYDLTGLKPGTEYPVWIQGVKGGSPSAPLSAIFTT
Result: 87200

Q: What do we get for SEQ ID NO 32 (designed binder, not shown: small tags and cut ends) MLPAPKNLVVSRVTEDSARLSWQGVARAFDSFLITYREQIFAGEVIVLTVPGSERSYDLTGLKPGTEYGVTIAGVKGGWRSKPLNAESTT ?
Result: 4550

Q: Queued: SEQ ID NO 5 (designed binder, not shown: small tags and cut ends) MLPAPKNLVVSEVTEDSARLSWQGVARAFDSFLITYREQIFAGEVIVLTVPGSERSYDLTGLKPGTEYWVYIWGVKGGKPSFPLRAGFTT
Result: 45000
